The measurements presented in this section are drawn from paper PMC11898701.

experiment: Pharmacokinetic study in Renca-luc tumor-bearing BALB/c mice; assay type: in vivo, mouse; conditions: male, BALB/c, mouse, ip; glucuronide metabolite, liver; after OXi8007 250 mg/kg
Metric: half-life
Report as: number unit

Entry COc1ccc2c(C(=O)c3cc(OC)c(OC)c(OC)c3)c(-c3ccc(OC)c(O[C@@H]4O[C@H](C(=O)O)[C@@H](O)[C@H](O)[C@H]4O)c3)[nH]c2c1 [OXi8006 Glucuronide] : reported half-life = ?
3.37 h

* * *

test: Pharmacokinetic study in Renca-luc tumor-bearing BALB/c mice; assay type: in vivo, mouse; settings: male, BALB/c, mouse, in vivo, ip, 250 mg/kg, liver; after OXi8007 250 mg/kg IP; read-out: Tmax (converted)
Measured Tmax, listed per entry.
Report the figure in min without appending any unit label.

Compound | Unit | Tmax
COc1ccc2c(C(=O)c3cc(OC)c(OC)c(OC)c3)c(-c3ccc(OC)c(O)c3)[nH]c2c1 [OXi8006] | min | 20

Could you now look at the following compound, please?
Entry COc1ccc2c(C(=O)c3cc(OC)c(OC)c(OC)c3)c(-c3ccc(OC)c(OP(=O)(O)O)c3)[nH]c2c1 [OXi8007] : reported Tmax = ?
20

* * *

Measured Cmax, listed per entry.
experiment: Pharmacokinetic study in Renca-luc tumor-bearing BALB/c mice; format: in vivo, mouse; conditions: male, BALB/c, mouse, in vivo, ip, 250 mg/kg, brain; after OXi8007 250 mg/kg IP; read-out: Cmax
Report the figure in ng/g without appending any unit label.

Smiles Code | Cmax (ng/g)
COc1ccc2c(C(=O)c3cc(OC)c(OC)c(OC)c3)c(-c3ccc(OC)c(O)c3)[nH]c2c1 | 220

Could you now look at the following molecule, please?
Entry COc1ccc2c(C(=O)c3cc(OC)c(OC)c(OC)c3)c(-c3ccc(OC)c(OP(=O)(O)O)c3)[nH]c2c1 : reported Cmax = ?
70

* * *

assay: Pharmacokinetic study in Renca-luc tumor-bearing BALB/c mice; assay type: in vivo, mouse; conditions: male, BALB/c, mouse, ip; glucuronide metabolite, spleen; after OXi8007 250 mg/kg
Metric: half-life (min)
Report the figure in min without appending any unit label.

Entry COc1ccc2c(C(=O)c3cc(OC)c(OC)c(OC)c3)c(-c3ccc(OC)c(O[C@@H]4O[C@H](C(=O)O)[C@@H](O)[C@H](O)[C@H]4O)c3)[nH]c2c1 [OXi8006 Glucuronide] : reported half-life = ?
132

* * *

experiment: Pharmacokinetic study in Renca-luc tumor-bearing BALB/c mice; type: in vivo, mouse; conditions: male, BALB/c, mouse, ip; glucuronide metabolite, brain; after OXi8007 250 mg/kg
Metric: half-life
Report as: number unit

Entry COc1ccc2c(C(=O)c3cc(OC)c(OC)c(OC)c3)c(-c3ccc(OC)c(O[C@@H]4O[C@H](C(=O)O)[C@@H](O)[C@H](O)[C@H]4O)c3)[nH]c2c1 [OXi8006 Glucuronide] : reported half-life = ?
69 min

* * *

assay: Pharmacokinetic study in Renca-luc tumor-bearing BALB/c mice; assay type: in vivo, mouse; settings: male, BALB/c, mouse, in vivo, ip, 250 mg/kg, spleen; after OXi8007 250 mg/kg IP; read-out: Cmax
Metric: Cmax

Smiles Code | Test Result
COc1ccc2c(C(=O)c3cc(OC)c(OC)c(OC)c3)c(-c3ccc(OC)c(O)c3)[nH]c2c1 | 4450 ng/g

Could you now look at the following molecule, please?
Entry COc1ccc2c(C(=O)c3cc(OC)c(OC)c(OC)c3)c(-c3ccc(OC)c(OP(=O)(O)O)c3)[nH]c2c1 : reported Cmax = ?
990 ng/g

* * *

experiment: Pharmacokinetic study in Renca-luc tumor-bearing BALB/c mice; type: in vivo, mouse; conditions: male, BALB/c, mouse, in vivo, ip, 250 mg/kg, brain; after OXi8007 250 mg/kg IP
Metric: half-life (h)
Report the figure in h without appending any unit label.

Compound | half-life, h
COc1ccc2c(C(=O)c3cc(OC)c(OC)c(OC)c3)c(-c3ccc(OC)c(OP(=O)(O)O)c3)[nH]c2c1 [OXi8007] | 0.51

Could you now look at the following compound, please?
Entry COc1ccc2c(C(=O)c3cc(OC)c(OC)c(OC)c3)c(-c3ccc(OC)c(O)c3)[nH]c2c1 [OXi8006] : reported half-life = ?
1.71

* * *

assay: Pharmacokinetic study in Renca-luc tumor-bearing BALB/c mice; type: in vivo, mouse; settings: male, BALB/c, mouse, in vivo, ip, 250 mg/kg, plasma; after OXi8007 250 mg/kg IP, Renca-luc tumor-bearing BALB/c mice
Metric: half-life

Smiles Code | half-life
COc1ccc2c(C(=O)c3cc(OC)c(OC)c(OC)c3)c(-c3ccc(OC)c(O)c3)[nH]c2c1 | 1.99 h

Could you now look at the following molecule, please?
Entry COc1ccc2c(C(=O)c3cc(OC)c(OC)c(OC)c3)c(-c3ccc(OC)c(OP(=O)(O)O)c3)[nH]c2c1 : reported half-life = ?
0.82 h

* * *

Measured half-life, listed per entry.
test: Pharmacokinetic study in Renca-luc tumor-bearing BALB/c mice; assay type: in vivo, mouse; conditions: male, BALB/c, mouse, in vivo, ip, 250 mg/kg, tumor and right kidney; after OXi8007 250 mg/kg IP
Report the figure in h without appending any unit label.

Smiles Code | Metric | Test Result
COc1ccc2c(C(=O)c3cc(OC)c(OC)c(OC)c3)c(-c3ccc(OC)c(OP(=O)(O)O)c3)[nH]c2c1 | half-life | 2

Could you now look at the following compound, please?
Entry COc1ccc2c(C(=O)c3cc(OC)c(OC)c(OC)c3)c(-c3ccc(OC)c(O)c3)[nH]c2c1 : reported half-life = ?
4.23

* * *

assay: Pharmacokinetic study in Renca-luc tumor-bearing BALB/c mice; format: in vivo, mouse; conditions: male, BALB/c, mouse, in vivo, ip, 250 mg/kg, brain; after OXi8007 250 mg/kg IP; read-out: Tmax (converted)
Measured Tmax, listed per entry.
Report the figure in min without appending any unit label.

Smiles Code | Metric | Test Result
COc1ccc2c(C(=O)c3cc(OC)c(OC)c(OC)c3)c(-c3ccc(OC)c(OP(=O)(O)O)c3)[nH]c2c1 | Tmax | 60

Entry COc1ccc2c(C(=O)c3cc(OC)c(OC)c(OC)c3)c(-c3ccc(OC)c(O)c3)[nH]c2c1 : reported Tmax = ?
20

* * *

test: Pharmacokinetic study in Renca-luc tumor-bearing BALB/c mice; format: in vivo, mouse; settings: male, BALB/c, mouse, in vivo, ip, 250 mg/kg, left kidney; after OXi8007 250 mg/kg IP
Measured half-life, listed per entry.
Report the figure in h without appending any unit label.

Smiles Code | half-life (h)
COc1ccc2c(C(=O)c3cc(OC)c(OC)c(OC)c3)c(-c3ccc(OC)c(OP(=O)(O)O)c3)[nH]c2c1 | 1.18

Entry COc1ccc2c(C(=O)c3cc(OC)c(OC)c(OC)c3)c(-c3ccc(OC)c(O)c3)[nH]c2c1 : reported half-life = ?
1.73

* * *

assay: Pharmacokinetic study in Renca-luc tumor-bearing BALB/c mice; type: in vivo, mouse; settings: male, BALB/c, mouse, ip; glucuronide metabolite, spleen; after OXi8007 250 mg/kg; read-out: Tmax (converted)
Metric: Tmax (h)
Report the figure in h without appending any unit label.

Entry COc1ccc2c(C(=O)c3cc(OC)c(OC)c(OC)c3)c(-c3ccc(OC)c(O[C@@H]4O[C@H](C(=O)O)[C@@H](O)[C@H](O)[C@H]4O)c3)[nH]c2c1 [OXi8006 Glucuronide] : reported Tmax = ?
1

* * *

experiment: Pharmacokinetic study in Renca-luc tumor-bearing BALB/c mice; type: in vivo, mouse; conditions: male, BALB/c, mouse, ip; glucuronide metabolite, heart; after OXi8007 250 mg/kg
Metric: half-life (h)
Report the figure in h without appending any unit label.

Entry COc1ccc2c(C(=O)c3cc(OC)c(OC)c(OC)c3)c(-c3ccc(OC)c(O[C@@H]4O[C@H](C(=O)O)[C@@H](O)[C@H](O)[C@H]4O)c3)[nH]c2c1 [OXi8006 Glucuronide] : reported half-life = ?
1.61

* * *

experiment: Pharmacokinetic study in Renca-luc tumor-bearing BALB/c mice; format: in vivo, mouse; conditions: male, BALB/c, mouse, in vivo, ip, 250 mg/kg, heart; after OXi8007 250 mg/kg IP; read-out: Cmax
Metric: Cmax (ng/g)
Report the figure in ng/g without appending any unit label.

Entry COc1ccc2c(C(=O)c3cc(OC)c(OC)c(OC)c3)c(-c3ccc(OC)c(OP(=O)(O)O)c3)[nH]c2c1 : reported Cmax = ?
1620

Also, COc1ccc2c(C(=O)c3cc(OC)c(OC)c(OC)c3)c(-c3ccc(OC)c(O)c3)[nH]c2c1 please.
5310

* * *

Experiment: Pharmacokinetic study in Renca-luc tumor-bearing BALB/c mice
Assay type: in vivo, mouse
Conditions: male, BALB/c, mouse, in vivo, ip, 250 mg/kg, liver; after OXi8007 250 mg/kg IP; read-out: Cmax
Protocol: Plasma and tissues were harvested at various time points (20 min to 16 h) from Renca-luc tumor-bearing BALB/c male mice following the administration of OXi8007 IP. Mice treated with 250 mg/kg were sacrificed at 20 min (n = 3), 1 h (n = 4), 2 h (n = 4), 4 h (n = 4), 8 h (n = 4), and 16 h (n = 4). […] Data were analyzed using Xcalibur 4.6 software based on exact masses, and Phoenix WinNonlin 8.5.0 software was used to determine the pharmacokinetic parameters based on a non-compartmental model.
Metric: Cmax (ng/g)
Report the figure in ng/g without appending any unit label.

Smiles Code | Unit | Cmax
COc1ccc2c(C(=O)c3cc(OC)c(OC)c(OC)c3)c(-c3ccc(OC)c(OP(=O)(O)O)c3)[nH]c2c1 | ng/g | 13400

Entry COc1ccc2c(C(=O)c3cc(OC)c(OC)c(OC)c3)c(-c3ccc(OC)c(O)c3)[nH]c2c1 : reported Cmax = ?
9160
